ASSAY_PROCEDURE: Tmax in Sprague-Dawley rat at 2.8 mg/kg, iv
Assay type: ADME, organism-based
APPLIED_CONDITIONS: in vivo
VALUE_KIND: Tmax (h)
Answers are plain numbers, in h.

The molecule CN(CC(=O)Nc1nc2ccc(OC(F)(F)F)cc2s1)C(=O)CNC(C)(C)C showed Tmax equal to 0

---

TARGET_SYSTEM: CYP2D6 (Homo sapiens)
Sequence (P10635 whole entry): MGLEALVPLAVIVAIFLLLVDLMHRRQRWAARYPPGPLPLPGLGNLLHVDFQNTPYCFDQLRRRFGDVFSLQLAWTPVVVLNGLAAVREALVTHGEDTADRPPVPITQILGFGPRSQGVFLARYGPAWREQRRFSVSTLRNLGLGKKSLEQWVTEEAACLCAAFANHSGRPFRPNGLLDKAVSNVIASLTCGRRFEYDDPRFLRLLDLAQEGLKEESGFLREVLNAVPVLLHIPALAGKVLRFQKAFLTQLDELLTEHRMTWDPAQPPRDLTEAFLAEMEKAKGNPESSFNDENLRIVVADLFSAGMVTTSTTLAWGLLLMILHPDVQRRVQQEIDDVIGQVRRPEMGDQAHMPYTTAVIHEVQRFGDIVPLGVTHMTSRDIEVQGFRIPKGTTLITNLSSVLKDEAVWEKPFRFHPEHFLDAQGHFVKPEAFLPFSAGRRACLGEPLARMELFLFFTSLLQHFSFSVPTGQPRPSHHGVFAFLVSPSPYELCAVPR
ASSAY_PROCEDURE: Inhibition of CYP2D6 (unknown origin) at 10 uM relative to control
Format: ADME
VALUE_KIND: inhibition at 10 µM

# inhibition at 10 µM measured on CYP2D6 (Homo sapiens) for item CN(CC(=O)Nc1nc2ccc(OC(F)(F)F)cc2s1)C(=O)CNC(C)(C)C = < 10%
